- Test system: D54 ERlucT glycosylation luciferase reporter, luminescence, 24 h
- ASSAY: N-linked glycosylation inhibitors, luciferase reporter, dose response, D54 ERlucT cells, luminescence, cherry-picks (AID 624491);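 note: signal gain reflects blocked N-linked glycosylation of a luciferase reporter; actives raise luciferase signal so AC26 marks activators of the reporter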
OBSERVABLE: AC26

OCCCNc1c2ccccc2nc2ccccc12
467 nM
Cc1cc2[nH]c3ccccc3c2c(C)n1
3670 nM

Problem: Determine from records and report AC26 for CCOc1ccc(OCC(=O)N(CCC2=CCCCC2)c2c(N)n(Cc3ccccc3)c(=O)[nH]c2=O)cc1
Result: 4380 nM

Problem: Determine from records and report AC26 for COc1ccc([C@@H]2[C@@H]3C(=O)N(C(C)(C)C)C(=O)[C@@H]3[C@]3(Cc4ccccc4)C(=O)N(c4cccc(Br)c4)C(=O)N23)cc1
Result: 1600 nM

Problem: Determine from records and report AC26 for CCOC(=O)c1[nH]c(C)c(C(=O)OCC(=O)NC(C)c2ccc(F)cc2)c1C (stereo not given)
Result: 3150 nM

Problem: Determine from records and report AC26 for Cc1cccc([C@@H]2[C@@H]3C(=O)N(Cc4ccccc4)C(=O)[C@@H]3[C@]3(Cc4ccccc4)C(=O)N(c4cccc(F)c4)C(=O)N23)c1
Result: 11400 nM

Problem: Determine from records and report AC26 for CCN(CC)CCNc1ccc(CO)c2oc3cc(Cl)ccc3c(=O)c12
Result: 2820 nM

Problem: Determine from records and report AC26 for COc1ccc(Cl)cc1S(=O)(=O)Nc1ccc2c(c1)n(C)c(=O)n2C
Result: 1470 nM

Problem: Determine from records and report AC26 for Cc1cccc2sc(NC(=O)c3cc(S(=O)(=O)N(C)C)ccc3N3CCCC3)nc12
Result: 157 nM

Problem: Determine from records and report AC26 for CNc1ccc(Br)cc(C(=O)/C=C/c2cccc(OC)c2OC)c1=O
Result: 2220 nM

Problem: Determine from records and report AC26 for Cc1ccc2c(c1)C(=O)N1[C@H]3c4cc(Br)ccc4OC[C@@H]3[C@H](c3ccccc3)[C@]1(C)C(=O)N2
Result: 689 nM

Problem: Determine from records and report AC26 for CCc1nn2c(NCCCO)cc(C)nc2c1-c1ccc(F)cc1
Result: 1630 nM

Problem: Determine from records and report AC26 for Cn1nc(-c2ccc(N3CCOCC3)c(NS(=O)(=O)c3ccccc3)c2)c2ccccc2c1=O
Result: 6110 nM

Problem: Determine from records and report AC26 for CC(=O)C1=C(C)OC(N)=C(C#N)C1c1cc([N+](=O)[O-])ccc1Cl (stereo not given)
Result: 2900 nM

Problem: Determine from records and report AC26 for COc1cc(-c2[nH]ncc2CN2CCSCC2)cc(OC)c1OC
Result: 4790 nM

Problem: Determine from records and report AC26 for C=CCOc1ccc(/C=C2\SC(N3CCCCC3)=NC2=O)cc1
Result: 5420 nM

Problem: Determine from records and report AC26 for Cn1cc(C(=O)N/N=C/C(Br)=C/c2ccccc2)ccc1=O
Result: 2850 nM

Problem: Determine from records and report AC26 for COC(=O)c1ccc(C(=O)NC2CCCc3c2cnn3-c2ccccc2F)nc1 (stereo not given)
Result: 4140 nM

Problem: Determine from records and report AC26 for COc1ccc(Nc2nc(-c3c(C)nc4ncccn34)cs2)cc1
Result: 17.2 nM

Problem: Determine from records and report AC26 for CCOC(=O)c1[nH]c(C)c(C(=O)Nc2cc(OC)ccc2OC)c1C
Result: 322 nM
